experiment-notes: Cytotoxicity against human HepG2 cells assessed as cell viability at 80 uM incubated for 24 hrs by CCK8 assay relative to control
Assay type: toxicity, cell-based
protocol-conditions: HepG2 cells, read-out: Activity
Would you kindly list viability at 24 h, 80 µM for each of these compounds?

Example entries begin here.
CC(=O)O[C@@H]1C[C@]2(C)[C@H]3CC=C4[C@@H]5[C@@H](C)[C@H](C)CC[C@]5(C(=O)NCCCN)CC[C@@]4(C)[C@]3(C)CC[C@H]2C(C)(C)[C@H]1OC(C)=O :: 8.9%
C[C@H]1[C@H](C)CC[C@]2(C(=O)OCc3ccccc3)CC[C@]3(C)C(=CC[C@@H]4[C@@]5(C)C[C@@H](O)[C@H](O)C(C)(C)[C@@H]5CC[C@]43C)[C@H]12 :: 12.3%
C[C@H]1[C@H](C)CC[C@]2(C(=O)OCc3ccccc3)CC[C@]3(C)C(=CC[C@@H]4[C@@]5(C)CCC(=O)C(C)(C)[C@@H]5CC[C@]43C)[C@H]12 :: > 80%

For every item in the list below, what is its measured viability at 24 h, 80 µM?
1. C[C@H]1[C@H](C)CC[C@]2(C(=O)On3nnc4ccccc43)CC[C@]3(C)C(=CC[C@@H]4[C@@]5(C)C[C@@H](O)[C@H](O)C(C)(C)[C@@H]5CC[C@]43C)[C@H]12
2. COC(=O)[C@H](Cc1ccccc1)NC(=O)[C@]12CC[C@@H](C)[C@H](C)[C@H]1C1=CC[C@@H]3[C@@]4(C)C[C@@H](O)[C@H](O)C(C)(C)[C@@H]4CC[C@@]3(C)[C@]1(C)CC2
3. CC(=O)O[C@H]1CC[C@]2(C)[C@H]3CC=C4[C@@H]5[C@@H](C)[C@H](C)CC[C@]5(C(=O)OCc5ccccc5)CC[C@@]4(C)[C@]3(C)CC[C@H]2C1(C)C
4. C[C@H]1[C@H](C)CC[C@]2(C(=O)NCCCNC(=O)c3ccccc3)CC[C@]3(C)C(=CC[C@@H]4[C@@]5(C)C[C@@H](O)[C@H](O)C(C)(C)[C@@H]5CC[C@]43C)[C@H]12
5. C[C@H]1[C@H](C)CC[C@]2(C(=O)NCCCN)CC[C@]3(C)C(=CC[C@@H]4[C@@]5(C)C[C@@H](O)[C@H](O)C(C)(C)[C@@H]5CC[C@]43C)[C@H]12

1. > 80%
2. > 80%
3. > 80%
4. > 80%
5. > 80%

Count: 5. Required value per item: viability at 24 h, 80 µM.
1. C[C@H]1[C@H](C)CC[C@]2(C(=O)OCc3ccccc3)CC[C@]3(C)C(=CC[C@@H]4[C@@]5(C)CC[C@H](O)C(C)(C)[C@@H]5CC[C@]43C)[C@H]12
2. C[C@H]1[C@H](C)CC[C@]2(C(=O)O[C@H]3O[C@H](CO)C(O)[C@@H](O)[C@H]3O)CC[C@]3(C)C(=CC[C@@H]4[C@@]5(C)C[C@@H](O)[C@H](O)C(C)(C)[C@@H]5CC[C@]43C)[C@H]12 (single isomer, unassigned)
3. C[C@H]1[C@H](C)CC[C@]2(C(=O)NC(=O)NC3CC3)CC[C@]3(C)C(=CC[C@@H]4[C@@]5(C)C[C@@H](O)[C@H](O)C(C)(C)[C@@H]5CC[C@]43C)[C@H]12
4. CCOC(=O)[C@H](CS)NC(=O)[C@]12CC[C@@H](C)[C@H](C)[C@H]1C1=CC[C@@H]3[C@@]4(C)C[C@@H](O)[C@H](O)C(C)(C)[C@@H]4CC[C@@]3(C)[C@]1(C)CC2
5. CCOC(=O)CNC(=O)[C@]12CC[C@@H](C)[C@H](C)[C@H]1C1=CC[C@@H]3[C@@]4(C)C[C@@H](O)[C@H](O)C(C)(C)[C@@H]4CC[C@@]3(C)[C@]1(C)CC2

> 80%
64.5%
> 80%
> 80%
> 80%

Please give viability at 24 h, 80 µM, item by item, for the list that follows.
1. COC(=O)C(Cc1ccc(OC)cc1)NC(=O)[C@]12CC[C@@H](C)[C@H](C)[C@H]1C1=CC[C@@H]3[C@@]4(C)C[C@@H](O)[C@H](O)C(C)(C)[C@@H]4CC[C@@]3(C)[C@]1(C)CC2 (some centres undefined)
2. CC(=O)O[C@@H]1C[C@]2(C)[C@H]3CC=C4[C@@H]5[C@@H](C)[C@H](C)CC[C@]5(C(=O)NCCCNC(=O)OCC5c6ccccc6-c6ccccc65)CC[C@@]4(C)[C@]3(C)CC[C@H]2C(C)(C)[C@H]1OC(C)=O
3. CCOC(=O)[C@H](C)NC(=O)[C@]12CC[C@@H](C)[C@H](C)[C@H]1C1=CC[C@@H]3[C@@]4(C)C[C@@H](OC(C)=O)[C@H](OC(C)=O)C(C)(C)[C@@H]4CC[C@@]3(C)[C@]1(C)CC2
4. CCCCC(=O)NCCCNC(=O)[C@]12CC[C@@H](C)[C@H](C)[C@H]1C1=CC[C@@H]3[C@@]4(C)C[C@@H](O)[C@H](O)C(C)(C)[C@@H]4CC[C@@]3(C)[C@]1(C)CC2

1. > 80%
2. > 80%
3. > 80%
4. > 80%

Batch lookup, viability at 24 h, 80 µM per entry.
1. COC(=O)CCCCNC(=O)[C@]12CC[C@@H](C)[C@H](C)[C@H]1C1=CC[C@@H]3[C@@]4(C)C[C@@H](O)[C@H](O)C(C)(C)[C@@H]4CC[C@@]3(C)[C@]1(C)CC2
2. CC(=O)OC[C@H]1O[C@H](OC(=O)[C@]23CC[C@@H](C)[C@H](C)[C@H]2C2=CC[C@@H]4[C@@]5(C)C[C@@H](O)[C@H](O)C(C)(C)[C@@H]5CC[C@@]4(C)[C@]2(C)CC3)C(OC(C)=O)[C@H](OC(C)=O)C1OC(C)=O (single isomer, unassigned)

["> 80%", "> 80%"]

* * *

experiment-notes: Oral bioavailability in Sprague-Dawley rat at 20 mg/kg measured for 24 hrs by HPLC-ESI-MS analysis
Format: ADME, organism-based
protocol-conditions: in vivo
recorded-metric: bioavailability

bioavailability reading for C[C@H]1[C@H](C)CC[C@]2(C(=O)O)CC[C@]3(C)C(=CC[C@@H]4[C@@]5(C)C[C@@H](O)[C@H](O)C(C)(C)[C@@H]5CC[C@]43C)[C@H]12 [COROSOLIC ACID] : < 1%

* * *

experiment-notes: Clearance in Sprague-Dawley rat at 20 mg/kg, po measured for 24 hrs by HPLC-ESI-MS analysis
Type: ADME, organism-based
protocol-conditions: in vivo
recorded-metric: CL/F (mL/min/kg)
Give bare numbers, in mL/min/kg.

Just so you know, measured CL/F for C[C@H]1[C@H](C)CC[C@]2(C(=O)O)CC[C@]3(C)C(=CC[C@@H]4[C@@]5(C)C[C@@H](O)[C@H](O)C(C)(C)[C@@H]5CC[C@]43C)[C@H]12 [COROSOLIC ACID] came out at 23.1

* * *

experiment-notes: Cytotoxicity against human HepG2 cells assessed as cell survival at 10 uM by MTT assay relative to control
Format: toxicity, cell-based
protocol-conditions: read-out: Survival
recorded-metric: viability at 10 µM (%)
One number for each entry, in %.

Memo: C[C@H]1[C@H](C)CC[C@]2(C(=O)O)CC[C@]3(C)C(=CC[C@@H]4[C@@]5(C)C[C@@H](O)[C@H](O)C(C)(C)[C@@H]5CC[C@]43C)[C@H]12 , reported viability at 10 µM: 96

* * *

experiment-notes: Cytotoxicity against human HepG2 cells assessed as cell viability at 80 uM incubated for 24 hrs by CCK8 assay relative to control
Assay type: toxicity, cell-based
protocol-conditions: HepG2 cells, read-out: Activity
Exercise: for every item that follows, state its recorded viability at 24 h, 80 µM.
Give bare numbers, in %.

Recorded results for 2 compounds are shown here.
C[C@H]1[C@H](C)CC[C@]2(C(=O)O)CC[C@]3(C)C(=CC[C@@H]4[C@@]5(C)CC[C@H](O)C(C)(C)[C@@H]5CC[C@]43C)[C@H]12 [URSOLIC ACID] :: 7.85
CC(=O)O[C@@H]1C[C@]2(C)[C@H]3CC=C4[C@@H]5[C@@H](C)[C@H](C)CC[C@]5(C(=O)O)CC[C@@]4(C)[C@]3(C)CC[C@H]2C(C)(C)[C@H]1OC(C)=O :: 58.7

Please turn your attention to the following entry.
Form: compound = C[C@H]1[C@H](C)CC[C@]2(C(=O)O)CC[C@]3(C)C(=CC[C@@H]4[C@@]5(C)C[C@@H](O)[C@H](O)C(C)(C)[C@@H]5CC[C@]43C)[C@H]12 [COROSOLIC ACID] ; viability at 24 h, 80 µM = 13.5

* * *

experiment-notes: MRT (0 to t) in Sprague-Dawley rat at 20 mg/kg, po measured for 24 hrs by HPLC-ESI-MS analysis
Format: ADME, organism-based
protocol-conditions: in vivo
recorded-metric: MRT last at 24 h (h)
Give bare numbers, in h.

Looking up C[C@H]1[C@H](C)CC[C@]2(C(=O)O)CC[C@]3(C)C(=CC[C@@H]4[C@@]5(C)C[C@@H](O)[C@H](O)C(C)(C)[C@@H]5CC[C@]43C)[C@H]12 , I see its MRT last at 24 h listed as 10.2
